pIC50 values by entry
molecular target: human PLAP (Homo sapiens); construct: made in house; host or cells: COS-1 cells, transient expression; dialyzed serum-free conditioned medium; assay: PLAP luminescent assay (CDP-star); type: biochemical; settings: read-out: Selectivity Panel IC50 PLAP
Sequence (P05187 23-506 limits assumed): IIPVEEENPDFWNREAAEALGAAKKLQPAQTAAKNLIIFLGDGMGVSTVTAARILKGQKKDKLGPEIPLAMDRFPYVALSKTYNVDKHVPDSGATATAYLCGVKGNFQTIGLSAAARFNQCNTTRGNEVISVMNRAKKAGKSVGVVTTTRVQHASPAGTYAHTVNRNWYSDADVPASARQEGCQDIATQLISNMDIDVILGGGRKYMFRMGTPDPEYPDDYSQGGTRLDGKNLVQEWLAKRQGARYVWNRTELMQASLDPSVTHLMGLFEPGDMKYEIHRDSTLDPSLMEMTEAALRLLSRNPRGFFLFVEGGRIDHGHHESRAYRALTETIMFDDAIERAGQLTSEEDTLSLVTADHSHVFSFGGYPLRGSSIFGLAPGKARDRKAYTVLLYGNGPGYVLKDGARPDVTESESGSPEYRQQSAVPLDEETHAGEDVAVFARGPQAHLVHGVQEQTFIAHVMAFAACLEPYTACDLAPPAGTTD
pIC50: −log10 of the molar value.

Example compounds with recorded pIC50:
INPUT: Please report pIC50 for the following compound: O=C(O)c1cc(-c2ccccc2Cl)[nH]n1
OUTPUT: < 4.00

INPUT: Identify pIC50 associated with the compound O=C1C2CC=CCC2C(=O)N1c1n[nH]c(Cc2ccccc2)n1 (centres unmarked)
OUTPUT: 5.51

INPUT: Give a short answer stating reported pIC50 for COc1ccc(C)cc1S(=O)(=O)Nc1cccnc1 .
OUTPUT: < 4.00

INPUT: Identify measured pIC50 corresponding to Oc1cc(-c2cccc3ccccc23)[nH]n1
OUTPUT: < 4.00

API: the following record is the query input.
INPUT: Answer with reported pIC50 of COc1ccc(OC)c(S(=O)(=O)Nc2cnc3ccccc3c2)c1
OUTPUT: < 4.00

----------
biological target: TNAP (Homo sapiens, UniProt P05186); construct: made in house; host or cells: COS-1 cells, transient expression; dialyzed serum-free conditioned medium; experiment: TNAP luminescent assay (CDP-star substrate, 100 mM DEA); type: biochemical; conditions: unit not given in Table 8; n=7; read-out: TNAP-Lumi
quantity_kind: IC50 (nM)
# output: bare number, implied unit nM

INPUT: Quickly give me recorded IC50 for O=C1C2CC=CCC2C(=O)N1c1nc(-c2ccccc2)n[nH]1 (stereo not shown) [CID-2946732]
OUTPUT: 795

----------
Molecular target: TNAP (Homo sapiens, UniProt P05186)
Construct: made in house; host or cells: COS-1 cells, transient expression; dialyzed serum-free conditioned medium
Assay: TNAP luminescent assay (CDP-star substrate, 100 mM DEA)
Type: biochemical
Settings: TNAP; read-out: IC50 (Figure 6, pyrazole series optimization)
Experimental: Development of the novel luminescent TNAP assay using CDP-star substrate and detailed protocol of its application for HTS is described in more detail elsewhere. […] Briefly, the assay was 50 μM CDP-star substrate in assay buffer containing 100 mM DEA-HCl (pH 9.8), 1 mM MgCl2, and 20 μM ZnCl2. The luminescence signal was measured after a 30-min incubation at room temperature on an EnVision plate reader (PerkinElmer, Waltham, MA). […]
pIC50: −log10 of the molar value.
quantity_kind: pIC50

INPUT: Item O=C(O)c1cc(-c2ccccc2Cl)[nH]n1 : provide pIC50
OUTPUT: 6.00

A = O=C(NCCO)c1cc(-c2ccc(Cl)c(Cl)c2Cl)n[nH]1
B = O=C(O)c1[nH]nc2c1COc1ccccc1-2
C = O=C(c1[nH]nc2c1COc1ccccc1-2)N1CCCC1
INPUT: With regard to pIC50, arrange the entries in ascending order, please. Note for the reader: the ranking is given by listing the labels in the order requested.
OUTPUT: B, C, A

----------
Biological target: TNAP (Homo sapiens)
Construct: made in house; host or cells: COS-1 cells, transient expression; dialyzed serum-free conditioned medium
Sequence (P05186 18-501 limits assumed): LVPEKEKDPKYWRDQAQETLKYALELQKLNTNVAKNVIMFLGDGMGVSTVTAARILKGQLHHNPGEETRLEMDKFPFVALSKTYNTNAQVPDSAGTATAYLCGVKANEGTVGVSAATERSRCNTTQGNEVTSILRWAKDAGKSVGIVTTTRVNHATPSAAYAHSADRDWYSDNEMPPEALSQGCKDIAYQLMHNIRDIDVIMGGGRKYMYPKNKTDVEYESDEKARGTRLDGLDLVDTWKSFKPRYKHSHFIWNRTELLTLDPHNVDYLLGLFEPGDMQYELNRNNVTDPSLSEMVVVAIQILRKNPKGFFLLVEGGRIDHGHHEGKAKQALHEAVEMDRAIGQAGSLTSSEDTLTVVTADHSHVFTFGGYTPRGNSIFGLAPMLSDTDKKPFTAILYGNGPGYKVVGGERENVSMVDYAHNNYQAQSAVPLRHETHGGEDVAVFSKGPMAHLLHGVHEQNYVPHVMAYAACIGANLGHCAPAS
Experiment: TNAP colorimetric assay (pNPP substrate, OD405, 1M DEA)
Type: biochemical
Details: compounds from MLSMR in liquid form; read-out: IC50 HTS-Color
pIC50: −log10 of the molar value.
quantity_kind: pIC50

P = Oc1cc(-c2cccc3ccccc23)[nH]n1 [MLS-0039961]
Q = COc1ccc(C)cc1S(=O)(=O)Nc1cccnc1 [MLS-0010847]
INPUT: Higher pIC50: P or Q ? Kindly state the label of the option you pick.
OUTPUT: Q
